system: 8H5 binding to H5N1 virus Chicken/HongKong/YU22/2002; set-up: species or system H5N1 avian influenza virus
Peptide text beside a SMILES is read from it.
This listing pairs molecules with measured Blocking Dose Yu22: amount of peptide that blocks binding of 8H5 to the virus by 50%.

[
  {
    "molecule": "CC(C)C[C@H](NC(=O)[C@H](C)NC(=O)[C@H](CCC(N)=O)NC(=O)[C@H](CCCCN)NC(=O)[C@@H](NC(=O)[C@H](CC(C)C)NC(=O)[C@H](CCC(=O)O)NC(=O)[C@@H](NC(=O)[C@@H](N)CC(=O)O)[C@@H](C)O)[C@@H](C)O)C(=O)N[C@@H](CCCNC(=N)N)C(=O)N[C@@H](CC(C)C)C(=O)N[C@H](C(=O)O)C(C)C [III-2a] (H-DTELTKQALRLV-OH; N-terminus and C-terminus assumed)",
    "subject-of-test": "8H5 binding to H5N1 virus Chicken/HongKong/YU22/2002",
    "assay-result": "15.19 µg"
  },
  {
    "molecule": "CC[C@H](C)[C@H](NC(=O)[C@@H](NC(=O)[C@H](CC(C)C)NC(=O)[C@H](CCC(=O)O)NC(=O)[C@@H](NC(=O)[C@@H](N)CCC(=O)O)[C@@H](C)O)[C@@H](C)O)C(=O)N[C@@H](C)C(=O)N[C@@H](C)C(=O)N[C@@H](CC(C)C)C(=O)N[C@@H](CCCCN)C(=O)N[C@@H](Cc1ccc(O)cc1)C(=O)N[C@H](C(=O)O)C(C)C [IV-1b] (H-ETELTIAALKYV-OH; N-terminus and C-terminus assumed)",
    "subject-of-test": "8H5 binding to H5N1 virus Chicken/HongKong/YU22/2002",
    "assay-result": ">50 µg"
  },
  {
    "molecule": "CC(C)C[C@H](NC(=O)[C@H](C)NC(=O)[C@H](C)NC(=O)[C@@H](NC(=O)[C@@H](NC(=O)[C@H](CC(C)C)NC(=O)[C@@H]1CCCN1C(=O)[C@@H](NC(=O)[C@@H](N)CC(=O)O)[C@@H](C)O)[C@@H](C)O)[C@@H](C)O)C(=O)N[C@@H](CCCNC(=N)N)C(=O)N[C@@H](CC(C)C)C(=O)N[C@H](C(=O)O)C(C)C [p125] (H-DTPLTTAALRLV-OH; N-terminus and C-terminus assumed)",
    "subject-of-test": "8H5 binding to H5N1 virus Chicken/HongKong/YU22/2002",
    "assay-result": "18.34 µg"
  },
  {
    "molecule": "CC[C@H](C)[C@H](NC(=O)[C@@H](NC(=O)[C@H](CC(C)C)NC(=O)[C@@H]1CCCN1C(=O)[C@@H](NC(=O)[C@@H](N)CCC(=O)O)[C@@H](C)O)[C@@H](C)O)C(=O)N[C@@H](C)C(=O)NCC(=O)N[C@@H](CC(C)C)C(=O)N[C@@H](CCCCN)C(=O)N[C@@H](CC(C)C)C(=O)N[C@@H](CCCCN)C(=O)O [V-1b] (H-ETPLTIAGLKLK-OH; N-terminus and C-terminus assumed)",
    "subject-of-test": "8H5 binding to H5N1 virus Chicken/HongKong/YU22/2002",
    "assay-result": "5.70 µg"
  }
]

// moving on: another record for Blocking Dose Yu22: amount of peptide that blocks binding of 8H5 to the virus by 50%
Problem: Output Blocking Dose Yu22: amount of peptide that blocks binding of 8H5 to the virus by 50% of CC[C@H](C)[C@H](NC(=O)[C@@H](NC(=O)[C@H](CC(C)C)NC(=O)[C@@H]1CCCN1C(=O)[C@@H](NC(=O)[C@@H](N)CC(=O)O)[C@@H](C)O)[C@@H](C)O)C(=O)N[C@@H](C)C(=O)NCC(=O)N[C@@H](CC(C)C)C(=O)N[C@@H](CCCCN)C(=O)N[C@@H](CC(C)C)C(=O)N[C@H](C(=O)O)C(C)C [II-1c] (H-DTPLTIAGLKLV-OH; N-terminus and C-terminus assumed)
Solution: 8.90 µg
